ASSAY METHOD TEXT: NCI Yeast Anticancer Drug Screen. Data for the rad50 strain (AID 155);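 note: 0% = growth of vehicle-only cultures of the same strain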
APPLIED CONDITIONS: S. cerevisiae rad50 strain growth inhibition; at 11.0 µM; active compounds read high
About 79,000 compounds went through this panel and 15% of them were active in at least one assay; those are over-represented in the sample as a whole.
Label scheme for growth inhibition: lower than 30% is N, 30% and above is Y.

Solved entries (count: 4):
COMPOUND | QUALITATIVE LABEL
Cc1nc2ccccc2nc1NNc1ccccc1 | N
CCCCCCCCCCCCCCCCOP(=O)(O)OCC(N)C(=O)O (stereo unspecified) | Y
O=C1C=C(Cl)C(=O)N1c1cccc(Cl)c1 | Y
Cc1ccc(NCCNCCO)c2c(=O)c3cc(O)ccc3sc12 | N

// query Please check the record `Cc1c(-c2ccccn2)ccc2ccccc12` and state if its growth inhibition is at or above 30%.
// result Y

----------
ASSAY METHOD TEXT: NCI Yeast Anticancer Drug Screen. Data for the bub3 strain (AID 167)
APPLIED CONDITIONS: S. cerevisiae bub3 mutant strain, at 1.2 µM, active compounds read high
The panel holds about 79,000 compounds, 15% with a hit somewhere; the sample as a whole holds those more often.
REPORTED PROPERTY: growth inhibition (%)
Numeric only. Scale: %

COMPOUND | growth inhibition / %
COC(C(O)CO)C(O)C(O)C(=O)NNc1ccccc1 (stereo unspecified) | -1
Cc1cc(-c2cc(C)c(O)c(C(C)(C)C)c2)cc(C(C)(C)C)c1O | -6
CC(C)C(C)/C=C\C(C)C1CCC2C3=CC=C4CC(O)CCC4(C)C3CCC21C (stereo unspecified) | -1
COc1ccc(C(NCCNC(c2ccc(OC)c(OC)c2)c2cc3c(cc2O)OCO3)c2cc3c(cc2O)OCO3)cc1OC (stereo unspecified) | -1

The reported growth inhibition of the compound CC[N+]1(C)CCC(O)(c2ccc(OC)cc2)C(C(=O)c2ccc(OC)cc2)C1 (stereo unspecified) was -49

Entry `COc1ccc(/C=C2\NC(=S)N(/C=C3\C(=O)Oc4ccccc4C3=O)C2=O)cc1` ; growth inhibition = -3

Noted for C=C1CCC(O)C/C1=C/C=C1\CCCC2(C)C1CCC2C(C)CCCC(C)C (stereo unspecified) : its growth inhibition reads -25

Recorded result, `O=[N+]([O-])c1ccc(N/N=C/Cc2ccccc2)c([N+](=O)[O-])c1` , growth inhibition: 2

Given item `Cc1cc(C)c(NC(=S)NC(=O)c2ccccc2)cc1C` , the value recorded as its growth inhibition is -21

Noted for `CCCCCCOC(=O)NCCOC(=O)Nc1ccccc1` : its growth inhibition reads 3

Notebook: CCCOC(=O)C(F)C(Br)C(=O)OCCC (stereo unspecified) , growth inhibition read as 38

Form: compound = `CCOc1ccccc1N=Cc1c2ccccc2cc2ccccc12` ; growth inhibition = 4

// growth inhibition value for `CC(C)(C)C1=CC(=CC=C2C=CN(CCCCCCCCCCCO)C=C2)C=C(C(C)(C)C)C1=O` : -2

The reported growth inhibition of the compound `CCOC(=O)C(C(=O)OCC)=P(c1ccccc1)(c1ccccc1)c1ccccc1` was -1

The compound listed as `O=C1C=C(N2CCN(c3ccccn3)CC2)C(=O)c2c(O)ccc(O)c21` shows growth inhibition equal to 4

The compound `COc1ccc(C(=O)c2ccccc2C(=O)c2ccccc2OC)cc1` showed growth inhibition equal to -1

Recorded growth inhibition (compound `c1ccc2c(c1)sc1c3cnccc3ccc21` ): 13

Reported growth inhibition for `O=C(NCCCl)Sc1ccc(Cl)cc1` was 2

Please fill in: growth inhibition reported for `COC1=C(N)C(=O)c2nc(-c3nc(C(=O)O)c(C)c(-c4ccc(OC)c(OC)c4O)c3N)ccc2C1=O` = 95

For `O=C1c2ccccc2C(=O)c2cc(CCl)ccc21` the compound record lists growth inhibition as 5

Recorded result, CC(C)(C)[Si](C)(C)OCC1CCC(n2cnc3c(NC(=O)c4ccccc4)ncnc32)O1 (stereo unspecified) , growth inhibition: 2

get_value(item= `O=C(O)c1ccc(N2C(=O)C=CC2=O)cc1` , readout=growth inhibition) returns -7
